Target: Cytochrome P450 1A2 (Homo sapiens, UniProt P05177);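 also: PubChem cytochrome P450 panel assay, CYP1A2 panel member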
Sequence (P05177 whole entry): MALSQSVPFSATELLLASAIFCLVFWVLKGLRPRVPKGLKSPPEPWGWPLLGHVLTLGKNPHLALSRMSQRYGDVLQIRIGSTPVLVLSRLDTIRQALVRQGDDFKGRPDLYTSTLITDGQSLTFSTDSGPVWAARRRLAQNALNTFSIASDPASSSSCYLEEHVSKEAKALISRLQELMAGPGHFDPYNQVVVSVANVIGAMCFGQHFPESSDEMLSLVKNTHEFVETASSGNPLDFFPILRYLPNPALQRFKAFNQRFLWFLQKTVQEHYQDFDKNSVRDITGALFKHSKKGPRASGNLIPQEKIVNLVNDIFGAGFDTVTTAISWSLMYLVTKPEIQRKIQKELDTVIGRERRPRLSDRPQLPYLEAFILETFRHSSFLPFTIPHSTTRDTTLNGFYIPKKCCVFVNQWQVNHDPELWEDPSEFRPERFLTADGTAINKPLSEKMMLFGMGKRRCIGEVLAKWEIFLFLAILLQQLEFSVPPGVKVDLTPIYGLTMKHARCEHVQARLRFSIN
For each record, write down the corresponding AC50.

Provide the reported AC50 of each entry below, same order.
1. CCN(CC(=O)Nc1ccc(N2CCOCC2)cc1)Cc1nc2ccccc2c(=O)[nH]1
2. c1cncc(-c2cccnc2)c1
3. CCCCCCCC/C=C\CCCCCCCC(=O)NCCc1ccc(O)c(O)c1
4. CCCN(CCC)CCCNC(=O)c1ccc2c(c1)N(CC)C(=O)c1ccccc1[S+]2[O-] (stereo not given)
5. NC(=O)OCC(COC(N)=O)c1ccccc1 [FELBAMATE]

stdout:
["20 µM (inconclusive)", "15.8 µM (inconclusive)", "20 µM (inconclusive)", "0.01 µM (inconclusive)", "39.8 µM (inconclusive)"]

Every entry's value here was drawn from ChEMBL document CHEMBL1201862.
